Tested on: PPARg homodimer (NR concentration 180 nM)
Measurement Protocol: PBM binding z-score (relative to random genomic background probes); higher = stronger binding; sequences stand for … in GC…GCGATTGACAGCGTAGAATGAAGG
Decide by PBM binding z-score: equal to or exceeding -0.3 means Condition met, less means Condition not met.

Reference set (4 entries):
INSERT INTO assay_data (record_sequence, assayed_target, group_label) VALUES
  ('TAGCCTAGTTCAGATCGGGCCAGTATACGCTATA', 'PPARg homodimer (NR concentration 180 nM)', 'Condition not met'),
  ('GCTTGTAGACCAAGGTTAAGAAAGACTAAGCTAA', 'PPARg homodimer (NR concentration 180 nM)', 'Condition met'),
  ('CCGACTGGGGCAAACGTTACCATACTCAGTACGA', 'PPARg homodimer (NR concentration 180 nM)', 'Condition met'),
  ('ATCGAAAAGTCGTGAGGTGAGTATACAGAAAGGC', 'PPARg homodimer (NR concentration 180 nM)', 'Condition met');

--- query ---
Identify whether the reported PBM binding z-score of the following sequence is -0.3 or greater: ACTATTAGTTGACTTAGGGCTACCGATACGACGC
Condition met

* * *

Some sequences, each annotated with its measured PBM binding z-score.
Tested on: PXR homodimer (NR concentration 270 nM)
Measurement Protocol: PBM binding z-score (relative to random genomic background probes); higher = stronger binding; sequences stand for … in GC…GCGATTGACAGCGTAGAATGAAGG
// return just the number, without any unit appended

Solved cases below.
INSERT INTO measurements (record_sequence, measured_result) VALUES
  ('CCTTACGGGCCAAGGTTATAGCACGGGTGGTACG', -0.372),
  ('AGAATGAGATTATTAAGATCAGGGAATTGCGGTC', -0.339),
  ('CCTGCTAGGTCAATTGTCAGCTAAAGCAGCTCGC', -0.49),
  ('TGACCAAGGTGAAGGTCGTTGATCCCTCTGTAGA', -0.313);

Turning now to a further sequence:
Entry TCGAGTAGGTTAGGCGGGGCATTCAGCCAACATA needs its PBM binding z-score filled in; supply it.
-0.273

* * *

Test system: PPARg:RXRa DBDmut IVT, anti-RXR (DBD mutation: RXRa K156A/R161A, NR concentration 270 nM, RXRa partner concentration 90 nM)
Measurement Protocol: PBM binding z-score (relative to random genomic background probes); higher = stronger binding; sequences stand for … in GC…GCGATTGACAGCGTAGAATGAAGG
Some sequences, each annotated with its measured PBM binding z-score.
// return just the number, without any unit appended

Solved cases below.
INSERT INTO results (record_sequence, recorded_endpoint, measured_result) VALUES
  ('CCTGCTAGGTCAATGGTCAGCTATAGCAGCTCGC', 'PBM binding z-score', 4.67),
  ('ATCGCTAGGTAACCAAGTTCAGTGAATGCCGAAC', 'PBM binding z-score', -0.05);

Entry GCGACTGGGGCAAAGCAGGGTACCATAAGGTTGG needs its PBM binding z-score filled in; supply it.
3.87

Entry TCGAGTAGGTTAACAATGGGGCATTCAGCTTTCT needs its PBM binding z-score filled in; supply it.
3.65

Entry AGAATGAGGTTATCCGTAGATCAGGGAAGAAAGT needs its PBM binding z-score filled in; supply it.
3.68

Entry CCGACTGGGGCAGAAAGGTAACCATACCATCCGG needs its PBM binding z-score filled in; supply it.
1.07

Entry CTCGATAGGTCGGTTGAGGTGAGTATACGGATAA needs its PBM binding z-score filled in; supply it.
-0.342

Entry CTCGAAAGGTCGCTTGAGGTGAGTATACGGATAA needs its PBM binding z-score filled in; supply it.
0.887

* * *

Test system: THRa homodimer (NR concentration 90 nM)
Measurement Protocol: PBM binding z-score (relative to random genomic background probes); higher = stronger binding; sequences stand for … in GC…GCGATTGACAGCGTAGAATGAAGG
Some sequences, each annotated with its measured PBM binding z-score.
// return just the number, without any unit appended

Entry ACAGACAGGTGGGTGAAGGTAACTCAGCTGGACG needs its PBM binding z-score filled in; supply it.
-0.174

* * *

Tested on: RARa homodimer (NR concentration 270 nM)
Measurement Protocol: PBM binding z-score (relative to random genomic background probes); higher = stronger binding; sequences stand for … in GC…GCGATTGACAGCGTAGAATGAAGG
Decide by PBM binding z-score: equal to or exceeding -0.04 means 1 (yes), less means 0 (no).

Reference set (6 entries):
INSERT INTO assay_data (record_sequence, group_label) VALUES
  ('CCAGACAGGTGAGAAGGTAACTCCGCCTCGATTA', '1 (yes)'),
  ('TCTATTAGTTGCTTAGGGCAACCGAAACAGCGGA', '1 (yes)'),
  ('GGAACGAGGGCATACGAGTTGATAGCATGGCGAT', '0 (no)'),
  ('TCGAGTAGGTTAGGGGCATTCATAATGGCGTCGA', '1 (yes)'),
  ('GAGACAGGGTCAAGGCCAGAGTACGCGTATTGAT', '1 (yes)'),
  ('ATATGTAGGTTAGCTGGGGGCATTCAGACTAGGC', '1 (yes)');

--- query ---
Identify whether the reported PBM binding z-score of the following sequence is -0.04 or greater: CTACCAAGGTGAACAGGGTCGTTGATTACTATTC
1 (yes)

* * *

Test system: PPARg homodimer (NR concentration 180 nM)
Measurement Protocol: PBM binding z-score (relative to random genomic background probes); higher = stronger binding; sequences stand for … in GC…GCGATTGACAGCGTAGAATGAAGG
Some sequences, each annotated with its measured PBM binding z-score.
// return just the number, without any unit appended

Solved cases below.
INSERT INTO measurements (record_sequence, recorded_endpoint, measured_result) VALUES
  ('TCTAGTTGGTCAAAGGTAACACACTCGAAATGCG', 'PBM binding z-score', 2.03),
  ('CCTACTGGGCCTTCAGGTCATTGATATCAACGTT', 'PBM binding z-score', 1.5),
  ('TCTCGGAGGACACGAAGGTCAGAGCGTTCCAGAG', 'PBM binding z-score', 1);

Entry TCATATAGGTAAAAGGTGCAAGTCGGTGTGGTAA needs its PBM binding z-score filled in; supply it.
1.63

Entry GCAGACAGGTGATACGCAGGTAACTCAGGGTGGC needs its PBM binding z-score filled in; supply it.
-0.0293

Entry CAAACTGGGTCAAAGGTCAAAGTCGAGCCAACCA needs its PBM binding z-score filled in; supply it.
4.84

Entry CCTATTAGTTCACCATAAGGGCAACCGAAGCTCG needs its PBM binding z-score filled in; supply it.
1.92

Entry CGTTACGGGTCACTCCAGGTTATAGCATCGGAGT needs its PBM binding z-score filled in; supply it.
1.14

Entry TCAGACAGGAGAAGGTAACTCAGGTACGCAGTCG needs its PBM binding z-score filled in; supply it.
0.0505

* * *

Some sequences, each annotated with its measured PBM binding z-score.
Test system: RARb homodimer (NR concentration 270 nM)
Measurement Protocol: PBM binding z-score (relative to random genomic background probes); higher = stronger binding; sequences stand for … in GC…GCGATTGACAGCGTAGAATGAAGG
// return just the number, without any unit appended

Solved cases below.
INSERT INTO measurements (record_sequence, measured_result) VALUES
  ('TAGCCTAGGTCCTTGGGCCAGTATAGTACGCATC', -0.937),
  ('GCTAGCAGGCCATTCGGGTCACTCAATGACGGGC', 2.3);

Entry ATATGTTGGTTAGCTGGGGTCATTCAGACTAGGC needs its PBM binding z-score filled in; supply it.
3.55

Entry GCGACTGGGGCATCAGCAGCTTACCATAACTTAA needs its PBM binding z-score filled in; supply it.
-0.217

Entry GTTCCAAGGTGAATAGGTCGTTGATGAGTAGGCG needs its PBM binding z-score filled in; supply it.
2.22

* * *

Test system: RARa homodimer (NR concentration 270 nM)
Measurement Protocol: PBM binding z-score (relative to random genomic background probes); higher = stronger binding; sequences stand for … in GC…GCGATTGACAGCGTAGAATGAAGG
Recorded Endpoint: PBM binding z-score
// return just the number, without any unit appended

Solved cases below.
INSERT INTO measurements (record_sequence, assayed_target, measured_result) VALUES
  ('ACAGACAGGTGAGGAAGGTAACTCAGGCTATCAT', 'RARa homodimer (NR concentration 270 nM)', 0.0819),
  ('GCTAGTTGGTCATTAAAAGGTCACACACCGGTCG', 'RARa homodimer (NR concentration 270 nM)', 1.98),
  ('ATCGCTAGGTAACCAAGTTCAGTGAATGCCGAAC', 'RARa homodimer (NR concentration 270 nM)', -0.716),
  ('CCTTACGGGTCACTGACCGGTTATAGCATTTGGA', 'RARa homodimer (NR concentration 270 nM)', 1.71),
  ('CCTACTGGGCCGAAGGTCATTGATTCCAATGCTC', 'RARa homodimer (NR concentration 270 nM)', 0.247);

Entry TCAGACAGGTGAAGGGAACTCAGGTACGCAGTCG needs its PBM binding z-score filled in; supply it.
0.593

Entry ACTATTAGTTGAGACGAGGGCAACCAATAGGTTG needs its PBM binding z-score filled in; supply it.
0.723

Entry AGAACGAGGGCACGCTGACTTGATAGCAGAGTAG needs its PBM binding z-score filled in; supply it.
-0.516

Entry TCTAGTAGGTTAGTCGGGGCATTCAGCCAACATA needs its PBM binding z-score filled in; supply it.
0.282

Entry ATATGTAGGTTACATACGGGTCATTCAGGCTATG needs its PBM binding z-score filled in; supply it.
0.636

Entry TCATATAGGTAAATGCTAGCTGAAAGTCCGATCT needs its PBM binding z-score filled in; supply it.
0.642

Entry ATCTCTAGGTAAAGTTGAGTGAAAGATCGATAGA needs its PBM binding z-score filled in; supply it.
0.741
